Listed here are molecules together with their documented growth.
- Tested on: NCI/ADR-RES ovarian
- protocol.notes: NCI-60 one-dose screen, 48 h (100 = growth as untreated, 0 = no growth, -100 = all killed)
- condition.label: 10 µM unless noted
About 83,000 compounds went through this panel and 20% of them were active in at least one assay; those are over-represented in the sample as a whole. Activity calls are given as the source filed them. How the source made its calls: active means growth percent below 10; inactive means the rest.

The examples below pair each entry with its known result.
INSERT INTO assay_data (molecule, result) VALUES
  ('O=C(CC(=O)c1cccc(Cl)c1)c1cccc(Cl)c1', '8.52% (active)'),
  ('O=C(Nc1cccc(N=Cc2c(O)ccc3ccccc23)c1)c1ccccc1', '103% (inactive)'),
  ('O=C(NCCN1CCCC1)n1cc(-c2ccncc2)c(-c2cc(O)cc(Cl)c2)n1', '101% (inactive)'),
  ('NS(=O)(=O)c1ccc(CCn2c(SCC(=O)N/N=C/c3cccnc3)nc3ccccc3c2=O)cc1', '105% (inactive)'),
  ('CC(=O)Cc1ccccn1', '108% (inactive)');

INPUT: Identify growth associated with the molecule "CC(=O)Nc1ccc(/C=N/N2CCCCCC2)cc1"
OUTPUT: 103% (inactive)

INPUT: Identify growth associated with the molecule "O=C(Nc1ccc(Cl)cc1)c1cc(-c2ccc(Cl)cc2)c2sc(=O)[nH]c2n1"
OUTPUT: 5.64% (active)

INPUT: Identify growth associated with the molecule "COc1ccc(C(=O)O)cc1.[Ag]"
OUTPUT: 99.5% (inactive)

* * *

- System: SNB-19 CNS
- protocol.notes: NCI-60 one-dose screen, 48 h (100 = growth as untreated, 0 = no growth, -100 = all killed)
- condition.label: 10 µM unless noted
This is part of a sample that, as a whole, favours compounds with a hit. Of some 83,000 tested, about 20% had one in any assay.
Listed here are compounds together with their documented growth.
Entry rule: numbers only, all in %.

INSERT INTO results (compound, assay_readout, numeric_value) VALUES
  ('CC(C)CC(=O)C(CCc1ccccn1)C(C)C (stereo unspecified)', 'growth', 108);

INPUT: Identify growth associated with the compound O=C1CCCN1C1CCN2CCCc3cccc1c32 (stereo unspecified)
OUTPUT: 100

INPUT: Identify growth associated with the compound CCOC(=O)C1C(=O)C=C(c2cc(OC)c(OC)c(OC)c2)CC1c1sc(N(C)Cc2ccccc2)nc1Cl (stereo unspecified)
OUTPUT: 77.5

INPUT: Identify growth associated with the compound "CCCCCCCCCCCCNC(=O)N[C@H](C(=O)N[C@H]1/C=C/CCNC(=O)/C=C/[C@H](C)NC1=O)C(C)C"
OUTPUT: -25.8

INPUT: Identify growth associated with the compound "COc1cnc2c(c1)C(=O)c1c-2n(CCCN2CCNCC2)c(=O)c2cc(Cl)ccc12"
OUTPUT: 30.4

INPUT: Identify growth associated with the compound "Nc1c(Br)cc2c(c1Br)Cc1cc(Cl)ccc1-2"
OUTPUT: 88.5

INPUT: Identify growth associated with the compound COc1cc(CN2CCC(N3CCCC3=O)c3ccccc32)cc(OC)c1OC (stereo unspecified)
OUTPUT: 83.6

INPUT: Identify growth associated with the compound Cc1nc(N)nc2c1CCC(Nc1ccccc1)S2 (stereo unspecified)
OUTPUT: 111

INPUT: Identify growth associated with the compound "COc1ccc(/C=C/c2nc(NCCCN(C)C)c3ccccc3n2)cc1"
OUTPUT: 100

INPUT: Identify growth associated with the compound "COc1cnc2c(c1)C(=O)c1c-2n(CCCNC(C)C)c(=O)c2cc(Cl)ccc12"
OUTPUT: -23.2

INPUT: Identify growth associated with the compound "CN(C)CCCn1c(=O)c2cc([N+](=O)[O-])ccc2c2cnc3[nH]ccc3c21"
OUTPUT: 53.5

Every entry's value here was drawn from PubChem BioAssay (NCI).
